Test system: UACC-257
METHOD DESCRIPTION: NCI tumour cell line growth inhibition, 48 h
The source made the active and inactive calls. Rule as the data show it: active = GI50 up to about 1.1 µM and inactive = higher.
Overview of recorded GI50 for various compounds

Please give the documented GI50 of Fc1ccc(/N=C/C=C/Nc2ccc(F)cc2)cc1 13.5 µM (inactive)

Please give the documented GI50 of C[N+](C)(C)C(C1=CCCC1=O)c1ccccc1 (stereo unspecified) 22.8 µM (inactive)

Please give the documented GI50 of COc1cc(/C=C2\N=C(c3ccccc3)N(c3nc4cc(C)c(C)cc4s3)C2=O)cc(OC)c1OC 28.9 µM (inactive)

Please give the documented GI50 of O=C(Nc1c(O)[nH]c(=S)[nH]c1=O)c1ccccn1 > 100 µM (inactive)

Please give the documented GI50 of N/C(=N\N=C\c1nc2ccccc2o1)c1cnccn1 > 100 µM (inactive)

###

Test system: OVCAR-4
METHOD DESCRIPTION: NCI tumour cell line growth inhibition, 48 h
The source made the active and inactive calls. No stated cut-off is given here; in the data, active = GI50 up to about 1.1 µM and inactive = higher.
Overview of recorded GI50 for various molecules

Recorded GI50, per entry:
N#CI1OC(=O)c2ccccc21    > 100 µM (inactive)
NS(=O)(=O)c1ccc(Nc2c3ccccc3nc3c(C(=O)NCCO)cccc23)cc1    0.195 µM (active)
O=C1/C(=C/c2ccc(O)cc2)Oc2ccccc21    72.6 µM (inactive)

Please give the documented GI50 of CCOC(=O)C(C)c1nc2cc(F)c(N3CCOCC3)cc2[nH]c1=O (stereo unspecified) > 100 µM (inactive)

Please give the documented GI50 of COC(=O)/C(C#N)=C(\Nc1ccccc1)N1CCCCC1 > 100 µM (inactive)

Please give the documented GI50 of CN(C)C(CN)CC1=C(CC(CN)N(C)C)CCC1 (stereo unspecified) > 100 µM (inactive)

###

Test system: EKVX
METHOD DESCRIPTION: NCI tumour cell line growth inhibition, 48 h
The source made the active and inactive calls. No stated cut-off is given here; in the data, active = GI50 up to about 1.1 µM and inactive = higher.
READOUT LABEL: GI50

Please give the documented GI50 of CCOC(=O)C12C3CCC1C2C(=O)C3 (stereo not given) > 100 µM (inactive)

Please give the documented GI50 of O=[N+]([O-])c1ccc(-c2ccc(C3=Nn4c(nnc4-c4ccc(Cl)cc4)SC3)o2)cc1 > 100 µM (inactive)

Please give the documented GI50 of CC(C)(c1cn(Cc2ccccc2)c2ccccc12)c1cn(Cc2ccccc2)c2ccccc12 > 100 µM (inactive)

###

Tested on: DU-145
METHOD DESCRIPTION: NCI tumour cell line growth inhibition, 48 h
Activity calls are given as the source filed them. No stated cut-off is given here; in the data, active = GI50 up to about 1.1 µM and inactive = higher. Numbered stars: 1 amine (or outer) side, 2 acyl side, 3 side chain; on linkers, the order of the positions; unused ones are H or OH. Square brackets hold non-standard residues; d marks the D form. Peptide text beside a SMILES is read from it. X55 = CC[C@H](C)[C@H](OC(=O)[C@@H](C)[C@@H](CC)N[*:1])C(=O)[*:2]; X31 = C[C@H](N[*:1])C(=O)C(C)(C)C(=O)[*:2]; NMeY = CN[C@@H](Cc1ccc(O)cc1)C(=O)O; NMeL = CN[C@@H](CC(C)C)C(=O)O; NMeV = CN[C@H](C(=O)O)C(C)C
Mark one answer only. Choices: active, inactive

Reference set (3 entries):
C#Cc1cc(Br)c(OC(=O)C(C)(C)C)c(-c2cc(C#C)cc(Br)c2OC(=O)C(C)(C)C)c1    inactive
CNC1NC(=O)c2ccccc2N1Cc1ccc(F)cc1 (centres undefined)    inactive
Oc1c(Cl)c(Cl)c(O)c(CCNc2ccc3ncccc3c2)c1Cl    inactive

Kindly review the next compound as well.
Which result was noted for this compound in the test: CC[C@H](C)[C@@H]1OC(=O)[C@@H](C)[C@@H](CC)NC(=O)[C@H](C)NC(=O)C(C)(C)C(=O)[C@H](C)NC(=O)[C@H](Cc2ccc(OC)cc2)N(C)C(=O)[C@H](C(C)C)N(C)C(=O)CNC(=O)[C@H](CC(C)C)N(C)C(=O)CNC1=O [DOLASTATIN 11] (cyclo(A[X55]G[NMeL]G[NMeV][NMeY](Me)[X31])) active
